# test_target: human melanocortin receptor 4 (MC4R) (Homo sapiens)
# Construct: grown with 200 ug/ml Geneticin
# test: Luciferase assay
# run_conditions: agonistic activity at MC4R (Table 18); patent does not state whether luciferase or cAMP assay
outcome_measure: EC50 (nM)

Below: 2 compounds and their reported EC50.
| compound | unit_tag | experimental_result |
| --- | --- | --- |
| CCN(C)C(=O)[C@@H]1C[C@H](N(C(=O)[C@@H]2CCCO2)C2CCC(C)(C)CC2)CN1C(=O)[C@@H]1CN(C2CCOCC2)C[C@H]1c1ccc(Cl)cc1 [Example E5-2] | nM | 5 |
| CN(C)C(=O)[C@@H]1C[C@H](N(C(=O)C(C)(C)C)c2ccc(F)cc2F)CN1C(=O)[C@@H]1CN(C(C)(C)C)C[C@H]1c1ccc(Cl)cc1 [Example D1] | nM | 47 |

P. CC1(C)CCC(N(C(=O)C(C)(C)C)[C@H]2CCN(C(=O)[C@@H]3CN(C(C)(C)C)C[C@H]3c3ccc(Cl)cc3)C2)CC1 [Example A9]
Q. CCN(C)C(=O)[C@@H]1C[C@H](N(C(=O)C(C)(C)CO)C2CCC(C)(C)CC2)CN1C(=O)[C@@H]1CN(C(C)(C)C)C[C@H]1c1ccc(Cl)cc1 [Example A4]
R. CCNC(=O)[C@@H]1C[C@H](N(C(=O)[C@@H]2CCCO2)C2CCC(C)(C)CC2)CN1C(=O)[C@@H]1CN(C(C)(C)C)C[C@H]1c1ccc(Cl)cc1 [Example A3]
S. CC1CCC(N(C(=O)C2=CCOC2)C2CCN(C(=O)C3CNCC3c3ccc(Cl)cc3)C2)CC1 (stereo not drawn) [Example E1-23]
Give the ascending ranking of the items by reported EC50. Write the labels in rank order as requested. Q, R, S, P

###

# test_target: human melanocortin receptor 4 (MC4R) (Homo sapiens, UniProt P32245)
# Construct: grown with 200 ug/ml Geneticin
# Sequence (P32245 whole entry): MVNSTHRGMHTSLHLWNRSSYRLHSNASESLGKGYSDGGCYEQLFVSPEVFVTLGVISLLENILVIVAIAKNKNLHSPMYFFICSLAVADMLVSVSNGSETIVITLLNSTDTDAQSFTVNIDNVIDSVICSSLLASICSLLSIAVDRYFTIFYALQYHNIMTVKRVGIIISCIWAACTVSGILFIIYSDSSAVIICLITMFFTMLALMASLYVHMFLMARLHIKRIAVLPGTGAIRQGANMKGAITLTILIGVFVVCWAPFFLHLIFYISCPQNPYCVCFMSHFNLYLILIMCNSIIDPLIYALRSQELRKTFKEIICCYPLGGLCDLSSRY
# test: Luciferase assay
# run_conditions: agonistic activity at MC4R (Table 18); patent does not state whether luciferase or cAMP assay
# Experimental: Cell lines expressing human melanocortin receptor 4 (MC4R) were dissociated from tissue culture dishes by rinsing with Ca^++, Mg^++ free DPBS, treated with 1× Trypsin/EDTA solution for 1 min at 37° C., and resuspended with DMRM (GIBCO-BRL) supplemented with 10% FBS. The cells were counted and diluted with DMEM supplemented with 10% FBS and 200 ug/ml of Geneticin to 5×110 cells/ml. […] Luciferase activity was measured by using L-Max luminometer (Molecular Device). […]
pEC50: −log10 of the molar value.
outcome_measure: pEC50

Below, each entry is followed by its recorded pEC50 result.
| molecule | pEC50 |
| --- | --- |
| CN1C[C@@H](C(=O)N2C[C@@H](N(C(=O)C(C)(C)C)[C@H]3CC[C@@H](C)CC3)C[C@H]2C(N)=O)[C@H](c2ccc(Cl)cc2)C1 | 7.62 |
| CC(C)C(=O)N(C1CCC(C)(C)CC1)C1CC(C=NO)N(C(=O)C2CN(C(C)(C)C)CC2c2ccc(F)cc2F)C1 (centres unmarked) | 7.19 |
| CCN(C)C(=O)[C@@H]1C[C@H](N(C(=O)C(C)(C)COC)C2CCC(F)(F)CC2)CN1C(=O)C1CN(C(C)(C)C)C[C@H]1c1ccc(Cl)cc1 (some centres unmarked) | 7.39 |

1. CC1(C)CCC(N(C(=O)C(C)(C)/C=N/O)[C@H]2CCN(C(=O)[C@@H]3CN(C(C)(C)C)C[C@H]3c3ccc(Cl)cc3)C2)CC1
2. CCNC(=O)[C@@H]1C[C@H](N(C(=O)C(C)(C)C)C2CCC(F)(F)CC2)CN1C(=O)[C@@H]1CN(C(C)(C)C)C[C@H]1c1ccc(Cl)cc1
3. CC(=O)C(C)(C)C(=O)N(C1CCC(C)(C)CC1)[C@H]1CCN(C(=O)[C@@H]2CN(C(C)(C)C)C[C@H]2c2ccc(Cl)cc2)C1
Rank descending by pEC50. State the ranking by listing the labels in the requested order. 3, 1, 2
(3: 8.22, 1: 7.82, 2: 7.62)

A. CC1CCC(N(C(=O)c2ccoc2)C2CCN(C(=O)C3CNCC3c3ccc(Cl)cc3)C2)CC1 (centres unmarked) [Example E1-14]
B. CCN(C)C(=O)[C@@H]1C[C@H](N(C(=O)C(C)(C)C)C2CCC(F)(F)CC2)CN1C(=O)[C@@H]1CN(C(C)(C)C)C[C@H]1c1ccc(Cl)cc1
Compare pEC50: is it lower for A or for B ? Give the label of your selection. B

I. CN(C)C(=O)[C@@H]1C[C@H](N(C(=O)C(C)(C)C)C2CCC(F)(F)CC2)CN1C(=O)[C@@H]1CN(C(C)(C)C)C[C@H]1c1ccc(Cl)cc1
II. CCN(C)C(=O)[C@@H]1C[C@H](N(C(=O)C(C)(C)CS)C2CCC(C)(C)CC2)CN1C(=O)[C@@H]1CN(C(C)(C)C)C[C@H]1c1ccc(F)cc1F
From the recorded data, which exceeds the other in pEC50: I or II ? Answer by stating the label of the chosen item. I
(I: 7.48, II: 7.18)

A. CC1(C)CCC(N(C(=O)C(C)(C)C(N)=O)[C@H]2CCN(C(=O)C3CN(C(C)(C)C)C[C@H]3c3ccc(Cl)cc3)C2)CC1 (some centres unmarked)
B. CC1CCC(N(C(=O)C(C)(C)C)C2CC(C(N)=S)N(C(=O)C3CN(C(C)(C)C)CC3c3ccc(F)cc3F)C2)CC1 (centres unmarked)
C. CN(C)C(=O)[C@@H]1C[C@H](N(C(=O)C(C)(C)C(N)=O)C2CCC(C)(C)CC2)CN1C(=O)C1CN(C(C)(C)C)C[C@H]1c1ccc(Cl)cc1 (some centres unmarked)
Hi! Can you put these in order of pEC50, lowest number first? Please respond by ranking the labels in the order requested. C, A, B
(C: 7.02, A: 7.42, B: 7.85)

P. CC1(C)CCC(N(C(=O)C(C)(C)C)[C@H]2CCN(C(=O)[C@@H]3CN(C(N)=O)C[C@H]3c3ccc(Cl)cc3)C2)CC1 [Example E2-3]
Q. COCC(C)(C)C(=O)N(C1CCC(F)(F)CC1)[C@H]1C[C@@H](C(=O)N(C)C)N(C(=O)[C@@H]2CN(C(C)(C)C)C[C@H]2c2ccc(Cl)cc2)C1
R. CCNC(=N)N1C[C@@H](C(=O)N2CC[C@H](N(C(=O)C(C)C)[C@H]3CC[C@@H](C)CC3)C2)[C@H](c2ccc(Cl)cc2)C1
S. CC1(C)CCC(N(C(=O)C(C)(C)CO)[C@H]2CCN(C(=O)[C@@H]3CN(C(N)=O)C[C@H]3c3ccc(Cl)cc3)C2)CC1 [Example E2-2]
T. CN(C)C(=O)[C@@H]1C[C@H](N(C(=O)C(C)(C)C)C2CCC(C)(C)CC2)CN1C(=O)[C@@H]1CN(C(C)(C)C)C[C@H]1c1ccc(F)cc1F
Please list the entries, largest pEC50 first. Give the labels in the order specified. R, S, T, Q, P

A. CCN(C)C(=O)[C@@H]1C[C@H](N(C(=O)[C@@H]2CCCO2)C2CCC3(CC2)CC3)CN1C(=O)[C@@H]1CN(C(C)(C)C)C[C@H]1c1ccc(Cl)cc1
B. CC1(C)CCC(N(C(=O)C(C)(C)C)[C@H]2C[C@@H](C(=O)Nc3ccccc3)N(C(=O)[C@@H]3CN(C(C)(C)C)C[C@H]3c3ccc(Cl)cc3)C2)CC1
// compare measured pEC50, left A , right B , return larger Indicate which entry you chose by stating its label. A
(A: 7.52, B: 7.16)

1. CC(=O)N(C1CCC(C)(C)CC1)[C@H]1C[C@@H](C(=O)N2CCOCC2)N(C(=O)[C@@H]2CN(C(C)(C)C)C[C@H]2c2ccc(Cl)cc2)C1
2. CC1(C)CCC(N(C(=O)C(C)(C)C)[C@H]2C[C@@H](CO)N(C(=O)[C@@H]3CN(C(C)(C)C)C[C@H]3c3ccc(Cl)cc3)C2)CC1
pEC50 comparison. Which is larger, 1 or 2 ? Mark your selection by writing its label. 2
(2: 7.80, 1: 7.42)
